The measured values listed here are drawn from PubChem BioAssay AID492956.

Target: Platelet-activating factor acetylhydrolase 2, cytoplasmic (Homo sapiens)
Test: inhibition of cytoplasmic PAF acetylhydrolase 2 – biochemical, fluorescence polarization, human, primary screen (AID 492956);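 further: inhibitors block probe labeling of enzyme so polarization drops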
Conditions: recombinant PAFAH2, FP-rhodamine activity probe, at 3.39 µM
Screen size: about 340,000 compounds; about 3,300 (0.97%) were called active.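 How the source made its calls: active means inhibition above the mean over all tested compounds plus 3 SD (cut at about 30% in these data); inactive means the rest.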 Shown is part of a subset that was picked to be rich in actives.
Outcome codes: true = active, false = inactive

{"Compound": "Cc1cc(C)n2nc(C(=O)OCC(=O)N(CCC#N)c3ccc(F)cc3)nc2n1", "Category Label": "false"}
{"Compound": "CCOc1ccc(/C=C/C(=O)OCC(=O)c2ccccc2OC)cc1OC", "Category Label": "false"}
{"Compound": "COc1ccc(CCNC(=O)COC(=O)/C=C/c2cccs2)cc1OC", "Category Label": "false"}
{"Compound": "O=C(Oc1cccc(NC2=NS(=O)(=O)c3ccccc32)c1)c1ccncc1", "Category Label": "false"}
{"Compound": "CCCc1cc(=O)[nH]c(SCc2ccc(C#N)cc2)n1", "Category Label": "false"}
{"Compound": "Cc1cc(=O)oc2c(C)c(OC(C)C(=O)NC3CCN(Cc4ccccc4)CC3)ccc12 (stereo not given)", "Category Label": "false"}
{"Compound": "O=C1COc2ccc(C(=O)COC(=O)CCOc3ccccc3)cc2N1", "Category Label": "false"}
{"Compound": "CCCc1cc(=O)n2[nH]c(SCc3ccccc3)nc2n1", "Category Label": "true"}
{"Compound": "COc1ccccc1-n1ccnc(SCC(=O)NC2CCCCC2)c1=O", "Category Label": "false"}
{"Compound": "Cc1cc(NS(=O)(=O)c2ccc(NC(=S)NC(=O)c3ccc(F)cc3Cl)cc2)no1", "Category Label": "false"}
{"Compound": "C[C@H]1CCC(=O)N([C@H](CSc2ccccc2)Cc2ccccc2)CC1", "Category Label": "false"}
{"Compound": "O=C(CNCCO)NC12CC3CC(CC(C3)C1)C2", "Category Label": "false"}
{"Compound": "O=C(COC(=O)CNS(=O)(=O)c1ccccc1)NC12CC3CC(CC(C3)C1)C2", "Category Label": "false"}
{"Compound": "CC(=O)Nc1cccc(C(=O)OCC(=O)Nc2nnc(-c3ccccc3)o2)c1", "Category Label": "false"}
{"Compound": "COc1ccccc1/C=C/C(=O)OCC(=O)NC1CCCCCC1", "Category Label": "true"}
{"Compound": "CCOc1c(OC)cccc1C(=O)NCC1(c2ccccc2)CCCC1", "Category Label": "false"}
{"Compound": "COc1ccc(C(=O)NCC2CCCCC2)cc1S(=O)(=O)N1CCCC1", "Category Label": "false"}
{"Compound": "C=CCNC(=O)/C=C/c1ccc(C(C)C)cc1", "Category Label": "false"}
{"Compound": "COc1cccc(NC(=O)COC(=O)c2ccc3ccccc3n2)c1", "Category Label": "false"}
{"Compound": "COc1ccc(C2=NN(c3nc4ccccc4s3)C(=O)C2)cc1", "Category Label": "true"}
{"Compound": "COc1ccc(N(Cc2cc3ccc(C)cc3[nH]c2=O)S(=O)(=O)c2ccccc2)cc1", "Category Label": "false"}
{"Compound": "O=C(COC(=O)/C=C/c1cccs1)NC1CCCCC1", "Category Label": "true"}
{"Compound": "COc1cc(C)c(C)cc1S(=O)(=O)N1CCCc2ccccc21", "Category Label": "false"}
{"Compound": "Cc1ccc(S(=O)(=O)N(C)CC(=O)OCC(=O)Nc2ccccc2)cc1", "Category Label": "false"}
{"Compound": "O=[N+]([O-])c1cc(S(=O)(=O)NCCc2ccccn2)ccc1Cl", "Category Label": "false"}
{"Compound": "O=C1/C(=C/c2cccs2)CCC1C1CCCC1 (stereo not given)", "Category Label": "false"}
{"Compound": "COc1cc(C(c2c(NC(=O)c3ccco3)sc(C)c2C)N2CCOCC2)cc(OC)c1OC (stereo not given)", "Category Label": "false"}
{"Compound": "COc1cc(C(=O)NCC2(c3ccccc3)CCCC2)ccc1OC(C)C", "Category Label": "true"}
{"Compound": "Cc1ccc(-c2nn(-c3ccc(F)cc3)cc2C(=O)NCC(c2cccs2)N2CCOCC2)cc1 (stereo not given)", "Category Label": "false"}
{"Compound": "CCCC(=O)N1CCC(CCC(=O)NC2CC2)CC1", "Category Label": "false"}
{"Compound": "CCc1ccc2oc(-c3ccc(N)cc3)nc2c1", "Category Label": "false"}
{"Compound": "O=C(Nc1ccc(S(=O)(=O)N2CCCCC2)cc1)C1CC(=O)N(c2ccc(F)cc2)C1 (stereo not given)", "Category Label": "false"}
{"Compound": "COc1ccccc1/C=C/C(=O)NC1CC2CCC1C2 (stereo not given)", "Category Label": "false"}
{"Compound": "Cn1c(=O)c(C(=O)Nc2ncccn2)c(O)c2ccccc21", "Category Label": "false"}
{"Compound": "Clc1ccc(-c2nc3ccccn3c2CN2CCSCC2)cc1", "Category Label": "false"}
{"Compound": "CCC(C)[C@H](NC(=O)N1CCn2c1nc1ccccc12)C(=O)NCc1ccc(OC)cc1 (stereo not given in full)", "Category Label": "false"}
{"Compound": "COc1ccc(CNC(=O)COC(=O)c2sccc2C)cc1OC", "Category Label": "false"}
{"Compound": "COc1cc2c(cc1O)C(SC)=NC(C)(C)C2", "Category Label": "false"}
{"Compound": "Nc1ccc2nc3c(=O)[nH]c(=S)[nH]c3nc2c1", "Category Label": "true"}
{"Compound": "CC(=O)Nc1cccc(C(=O)OCC(=O)NCc2cc(C)c(O)c(C)c2)c1", "Category Label": "false"}
{"Compound": "N/C(=N\\OS(=O)(=O)c1cccc([N+](=O)[O-])c1)c1ccncc1", "Category Label": "false"}
{"Compound": "CC(C)CNC(=O)COC(=O)/C=C/c1ccco1", "Category Label": "true"}
{"Compound": "CCN(CC)S(=O)(=O)c1ccc(N2CCN(C)CC2)c(NC(=O)Nc2ccccc2F)c1", "Category Label": "false"}
{"Compound": "CC1CC1C(=O)OCC(=O)Nc1cccc(F)c1 (stereo not given)", "Category Label": "true"}
{"Compound": "COc1ccc(COC(=O)c2ccc(Cl)c(S(=O)(=O)N3CCOCC3)c2)cc1F", "Category Label": "false"}
